B1: Transcription elongation factor A N-terminal and central domain-containing protein, residues 30 to 77; numbered along this chain, Q8N8B7 (parent)
chain: LTELETIYVTKEHLQETDVVRAVYRVLKNCPSVALKKKAKCLLSKWKA

variants of: B1; assay: abundance fitness (aPCA) (normalised: wild type 0, dead -1); higher = more abundant; growth selection in yeast, the domain comes from the species named; settings: Homo sapiens
Kind request: treat -0.2 as inclusive, so abundance fitness at -0.2 or higher is True, anything lower is False.

Q: Check this variant for abundance fitness at or above -0.2: LTELETWYVTKEHLQETDVVRAVYRVLKNCPSVALKKKAKCLLSKWKA [I7W]
Result: False

Q: Check this variant for abundance fitness at or above -0.2: LTELETIYVTKEHLQETDVVRAVYRVYKNCPSVALKKKAKCLLSKWKA [L27Y]
Result: False

Q: Check this variant for abundance fitness at or above -0.2: LTELETIYVTKEHLQTTDVVRAVYRVLKNCPSVALKKKAKCLLSKWKA [E16T]
Result: True

Q: Check this variant for abundance fitness at or above -0.2: LTELETIYVTKEHLQETDVVRAVYRVLKNCPSVALKKKAKCLLSKWRA [K47R]
Result: False

Q: Check this variant for abundance fitness at or above -0.2: LTELETIYVTKEHLQETDVVRAVYRVLKNIPSVALKKKAKCLLSKWKA [C30I]
Result: True

Q: Check this variant for abundance fitness at or above -0.2: LTELETIYVTKEHLQETDVVRAVYRVEKNCPSVALKKKAKCLLSKWKA [L27E]
Result: False

Q: Check this variant for abundance fitness at or above -0.2: LTELETIYVTKEHLQETDVVRAVARVLKNCPSVALKKKAKCLLSKWKA [Y24A]
Result: True

Q: Check this variant for abundance fitness at or above -0.2: LWELETIYVTKEHLQETDVVRAVYRVLKNCPSVALKKKAKCLLSKWKA [T2W]
Result: False

Q: Check this variant for abundance fitness at or above -0.2: LTELETHYVTKEHLQETDVVRAVYRVLKNCPSVALKKKAKCLLSKWKA [I7H]
Result: False

Q: Check this variant for abundance fitness at or above -0.2: LTELETIYVTKEHLQETDVVRAVYRVLKNCPSVALKKKAKCLLSFWKA [K45F]
Result: True

Q: Check this variant for abundance fitness at or above -0.2: LTELETIYVTKEHLQETDVVRAVYRVLKNCPSVWLKKKAKCLLSKWKA [A34W]
Result: True

Source listed as the Human Domainome abundance scans (Beltran et al. 2025).
